- experimental.details: growth suppression of beta-catenin-knockout colon cells, dose response, cell-based, HCT116, human colon tumor (AID 1045);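 also: HCT116 colon tumor cells with beta catenin knocked out; cells exposed to compound for 60 hours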
- Format: functional
Activity calls are given as the source filed them.
Below is a list of entries, each paired with its recorded EC50 value.
property.label: EC50

[[record]]
compound_string = "COC(=O)c1sc(-c2ccccc2)cc1NC(=O)c1cc(OC)cc(OC)c1"
endpoint_result = "21.7 µM (active)"

[[record]]
compound_string = "Nc1c(N(C(=O)Nc2ccc(Cl)c(Cl)c2)C2CCCC2)c(=O)[nH]c(=O)n1Cc1ccccc1"
endpoint_result = "15.3 µM (active)"

[[record]]
compound_string = "N=c1n(CCO)c2ccccc2n1CCOc1ccc(Cl)cc1Cl"
endpoint_result = "8.45 µM (active)"

[[record]]
compound_string = "CCN1C/C(=C\\c2cccc([N+](=O)[O-])c2)C(=O)/C(=C/c2cccc([N+](=O)[O-])c2)C1"
endpoint_result = "0.187 µM (active)"


###

Below is a list of entries, each paired with its recorded AC50 value.
- assay.system: UniProtKB P08684
- Sequence (P08684 whole entry): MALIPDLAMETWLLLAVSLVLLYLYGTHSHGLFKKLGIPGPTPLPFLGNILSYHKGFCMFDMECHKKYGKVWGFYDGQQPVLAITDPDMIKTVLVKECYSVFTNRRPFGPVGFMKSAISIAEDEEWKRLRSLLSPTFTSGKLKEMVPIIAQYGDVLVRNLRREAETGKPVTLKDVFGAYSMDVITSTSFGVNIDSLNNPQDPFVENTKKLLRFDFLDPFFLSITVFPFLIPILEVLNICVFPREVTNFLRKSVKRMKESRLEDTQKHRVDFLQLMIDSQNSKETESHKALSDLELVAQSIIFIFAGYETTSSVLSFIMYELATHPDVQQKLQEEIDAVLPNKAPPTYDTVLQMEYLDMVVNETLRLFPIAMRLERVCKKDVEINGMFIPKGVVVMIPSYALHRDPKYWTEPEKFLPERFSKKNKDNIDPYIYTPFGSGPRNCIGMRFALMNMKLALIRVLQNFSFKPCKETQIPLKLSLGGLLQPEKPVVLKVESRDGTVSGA
- details: Potency
Counter-ions that a name gives are not always drawn.
property.label: AC50

[[record]]
compound = "CCCCCCCC#Cc1ccccc1/C=N/[S+]([O-])C(C)(C)C (centres undefined)"
assay_system = "UniProtKB P08684"
property_label = "AC50"
endpoint_result = "3.16 µM (inconclusive)"

[[record]]
compound = "Oc1ccc(Nc2nc(-c3ccc(Cl)cc3)cs2)cc1"
assay_system = "UniProtKB P08684"
property_label = "AC50"
endpoint_result = "25.1 µM (inconclusive)"

[[record]]
compound = "CCN1C[C@@]2(COC)C3[C@@H](OC)C4[C@@H]1[C@@]3(C1C[C@@]3(O)[C@H](OC(=O)c5ccccc5)C1[C@]4(OC(C)=O)[C@@H](O)[C@@H]3OC)[C@@H](OC)C[C@H]2O (some centres undefined)"
assay_system = "UniProtKB P08684"
property_label = "AC50"
endpoint_result = "31.6 µM (inconclusive)"

[[record]]
compound = "Clc1nccc2c1ccc1ccccc12"
assay_system = "UniProtKB P08684"
property_label = "AC50"
endpoint_result = "12.6 µM (inconclusive)"

[[record]]
compound = "CC(=O)Oc1cc2c(c(C)c1OC(C)=O)CC=C1[C@]3(C)CC[C@]4(C)CC[C@@](C)(C(=O)O)CC4[C@]3(C)CC[C@]12C (some centres undefined)"
assay_system = "UniProtKB P08684"
property_label = "AC50"
endpoint_result = "31.6 µM (inconclusive)"

[[record]]
compound = "CCCn1c(-c2ccc(F)cc2)nc2c(NC(C)CN(C)C)nc(C)nc21 (centres undefined)"
assay_system = "UniProtKB P08684"
property_label = "AC50"
endpoint_result = "20 µM (inconclusive)"

[[record]]
compound = "COc1cc(O)c(C(=O)/C=C/c2ccccc2)c(OC)c1"
assay_system = "UniProtKB P08684"
property_label = "AC50"
endpoint_result = "15.8 µM (inconclusive)"

[[record]]
compound = "COc1cc(O)cc(/C=C/c2ccccc2)c1"
assay_system = "UniProtKB P08684"
property_label = "AC50"
endpoint_result = "31.6 µM (inconclusive)"

[[record]]
compound = "NCC(=O)c1ccccc1 [PHENACYLAMINE HYDROCHLORIDE]"
assay_system = "UniProtKB P08684"
property_label = "AC50"
endpoint_result = "6.31 µM (inconclusive)"


###

- System: BJ
- experimental.details: cytotoxicity toward BJ-TERT fibroblasts, dose response, cell-based, RAS-independent, luminescence (AID 1933)
- Format: functional
- details: Homo sapiens
The source made the active and inactive calls.
Below is a list of entries, each paired with its recorded EC50 value.
property.label: EC50

[[record]]
molecule = "Cc1c(C(=O)N/N=C/c2ccccc2)[nH]c2c([N+](=O)[O-])cccc12"
assay_system = "BJ"
endpoint_result = "0.776 µM (active)"

[[record]]
molecule = "COC(=O)/C(=C\\Nc1ccc(Cl)cc1Cl)NC(=O)c1ccc(OC)cc1"
assay_system = "BJ"
endpoint_result = "10 µM (inconclusive)"

[[record]]
molecule = "CC(=O)Nc1ccc(/C=N/Nc2nc3ccccc3[nH]2)cc1"
assay_system = "BJ"
endpoint_result = "> 150 µM (not active)"

[[record]]
molecule = "O=C1C2CCN(CC2)C1Cc1ccc(OCCOc2ccccc2)cc1 (centres undefined)"
assay_system = "BJ"
endpoint_result = "> 150 µM (not active)"


###

- assay.system: UniProt P27467
- Sequence (P27467 whole entry): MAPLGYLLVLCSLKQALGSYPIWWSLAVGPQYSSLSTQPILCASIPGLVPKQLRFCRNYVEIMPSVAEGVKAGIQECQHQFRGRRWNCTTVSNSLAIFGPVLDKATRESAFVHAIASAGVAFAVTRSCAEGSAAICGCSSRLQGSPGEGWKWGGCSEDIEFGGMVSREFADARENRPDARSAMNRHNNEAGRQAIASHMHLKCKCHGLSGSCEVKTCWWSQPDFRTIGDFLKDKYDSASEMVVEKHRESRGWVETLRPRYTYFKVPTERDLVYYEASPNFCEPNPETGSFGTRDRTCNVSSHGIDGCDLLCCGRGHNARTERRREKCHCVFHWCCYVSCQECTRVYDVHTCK
- experimental.details: Wnt3a-driven reporter signaling inhibition, dose response, selectivity assay for Gli-SUFU antagonist project, Wnt-LIGHT cells, luminescence (AID 651570);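 also: Wnt-LIGHT reporter cells stimulated with conditioned medium from Wnt3a-producing cells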
- Type: functional
- details: read-out: IC50_Mean
The source made the active and inactive calls.
Outcomes: true (1) = active, false (0) = inactive

[[record]]
compound_string = "CC(C)C[C@H]1CN=C(N(C)C)N1CCCCc1ccccc1"
assay_system = "UniProt P27467"
class_assignment = "true (1)"

[[record]]
compound_string = "O=C(N[C@@H]1C/C=C\\C[C@@H](CC(=O)N(CCO)Cc2ccccc2)C(=O)NCCOC1=O)OCC1c2ccccc2-c2ccccc21"
assay_system = "UniProt P27467"
class_assignment = "false (0)"

[[record]]
compound_string = "O=C(Cn1cnc2ccccc21)Nc1cccc(S(=O)(=O)N2CCCC2)c1"
assay_system = "UniProt P27467"
class_assignment = "true (1)"

[[record]]
compound_string = "CCOC(=O)N1CCN(C(=O)c2ccc(CSc3ccc(Cl)cc3)cc2)CC1"
assay_system = "UniProt P27467"
class_assignment = "true (1)"


###

Below is a list of entries, each paired with its recorded IC50 value.
- assay.system: Nonstructural protein 1 (Influenza A virus, UniProt Q194T2)
- Sequence (Q194T2 whole entry): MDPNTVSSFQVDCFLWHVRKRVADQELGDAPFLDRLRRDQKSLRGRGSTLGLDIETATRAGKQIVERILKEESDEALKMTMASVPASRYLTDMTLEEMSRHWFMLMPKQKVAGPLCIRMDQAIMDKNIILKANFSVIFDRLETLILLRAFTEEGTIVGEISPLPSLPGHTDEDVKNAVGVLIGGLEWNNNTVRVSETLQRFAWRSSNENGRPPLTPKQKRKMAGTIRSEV
- Format: functional, Influenza A virus (A/California/07/2009(H1N1))
Active and inactive are the calls of the source.
property.label: IC50

[[record]]
compound_string = "Cc1c(N/N=C2/C(=O)NC(=O)N(Cc3ccccc3)C2=O)c(=O)n(-c2ccccc2)n1C"
endpoint_result = "3.31 µM (active)"

[[record]]
compound_string = "CCN1C(=O)/C(=C2\\SC(=S)N(CCCOC)C2=O)c2ccccc21"
endpoint_result = "62.7 µM (active)"

[[record]]
compound_string = "O=C(CN1CCCC1)N/N=C/c1c(O)ccc2ccccc12"
endpoint_result = "9.17 µM (active)"

[[record]]
compound_string = "O=[N+]([O-])c1ccc(O)c(/C=N/Nc2ccccn2)c1"
endpoint_result = "7.05 µM (active)"

[[record]]
compound_string = "O=C(NCCN1CCOCC1)c1cc2sccc2n1Cc1ccc(Cl)cc1"
endpoint_result = "> 100 µM (active)"

[[record]]
compound_string = "N=C(Nc1nc(-c2ccccn2)cc2ccccc12)c1ccccn1"
endpoint_result = "39.6 µM (active)"


###

- assay.system: Fatty acid synthase (Homo sapiens)
- Sequence (P49327 whole entry, the tested form may be a part): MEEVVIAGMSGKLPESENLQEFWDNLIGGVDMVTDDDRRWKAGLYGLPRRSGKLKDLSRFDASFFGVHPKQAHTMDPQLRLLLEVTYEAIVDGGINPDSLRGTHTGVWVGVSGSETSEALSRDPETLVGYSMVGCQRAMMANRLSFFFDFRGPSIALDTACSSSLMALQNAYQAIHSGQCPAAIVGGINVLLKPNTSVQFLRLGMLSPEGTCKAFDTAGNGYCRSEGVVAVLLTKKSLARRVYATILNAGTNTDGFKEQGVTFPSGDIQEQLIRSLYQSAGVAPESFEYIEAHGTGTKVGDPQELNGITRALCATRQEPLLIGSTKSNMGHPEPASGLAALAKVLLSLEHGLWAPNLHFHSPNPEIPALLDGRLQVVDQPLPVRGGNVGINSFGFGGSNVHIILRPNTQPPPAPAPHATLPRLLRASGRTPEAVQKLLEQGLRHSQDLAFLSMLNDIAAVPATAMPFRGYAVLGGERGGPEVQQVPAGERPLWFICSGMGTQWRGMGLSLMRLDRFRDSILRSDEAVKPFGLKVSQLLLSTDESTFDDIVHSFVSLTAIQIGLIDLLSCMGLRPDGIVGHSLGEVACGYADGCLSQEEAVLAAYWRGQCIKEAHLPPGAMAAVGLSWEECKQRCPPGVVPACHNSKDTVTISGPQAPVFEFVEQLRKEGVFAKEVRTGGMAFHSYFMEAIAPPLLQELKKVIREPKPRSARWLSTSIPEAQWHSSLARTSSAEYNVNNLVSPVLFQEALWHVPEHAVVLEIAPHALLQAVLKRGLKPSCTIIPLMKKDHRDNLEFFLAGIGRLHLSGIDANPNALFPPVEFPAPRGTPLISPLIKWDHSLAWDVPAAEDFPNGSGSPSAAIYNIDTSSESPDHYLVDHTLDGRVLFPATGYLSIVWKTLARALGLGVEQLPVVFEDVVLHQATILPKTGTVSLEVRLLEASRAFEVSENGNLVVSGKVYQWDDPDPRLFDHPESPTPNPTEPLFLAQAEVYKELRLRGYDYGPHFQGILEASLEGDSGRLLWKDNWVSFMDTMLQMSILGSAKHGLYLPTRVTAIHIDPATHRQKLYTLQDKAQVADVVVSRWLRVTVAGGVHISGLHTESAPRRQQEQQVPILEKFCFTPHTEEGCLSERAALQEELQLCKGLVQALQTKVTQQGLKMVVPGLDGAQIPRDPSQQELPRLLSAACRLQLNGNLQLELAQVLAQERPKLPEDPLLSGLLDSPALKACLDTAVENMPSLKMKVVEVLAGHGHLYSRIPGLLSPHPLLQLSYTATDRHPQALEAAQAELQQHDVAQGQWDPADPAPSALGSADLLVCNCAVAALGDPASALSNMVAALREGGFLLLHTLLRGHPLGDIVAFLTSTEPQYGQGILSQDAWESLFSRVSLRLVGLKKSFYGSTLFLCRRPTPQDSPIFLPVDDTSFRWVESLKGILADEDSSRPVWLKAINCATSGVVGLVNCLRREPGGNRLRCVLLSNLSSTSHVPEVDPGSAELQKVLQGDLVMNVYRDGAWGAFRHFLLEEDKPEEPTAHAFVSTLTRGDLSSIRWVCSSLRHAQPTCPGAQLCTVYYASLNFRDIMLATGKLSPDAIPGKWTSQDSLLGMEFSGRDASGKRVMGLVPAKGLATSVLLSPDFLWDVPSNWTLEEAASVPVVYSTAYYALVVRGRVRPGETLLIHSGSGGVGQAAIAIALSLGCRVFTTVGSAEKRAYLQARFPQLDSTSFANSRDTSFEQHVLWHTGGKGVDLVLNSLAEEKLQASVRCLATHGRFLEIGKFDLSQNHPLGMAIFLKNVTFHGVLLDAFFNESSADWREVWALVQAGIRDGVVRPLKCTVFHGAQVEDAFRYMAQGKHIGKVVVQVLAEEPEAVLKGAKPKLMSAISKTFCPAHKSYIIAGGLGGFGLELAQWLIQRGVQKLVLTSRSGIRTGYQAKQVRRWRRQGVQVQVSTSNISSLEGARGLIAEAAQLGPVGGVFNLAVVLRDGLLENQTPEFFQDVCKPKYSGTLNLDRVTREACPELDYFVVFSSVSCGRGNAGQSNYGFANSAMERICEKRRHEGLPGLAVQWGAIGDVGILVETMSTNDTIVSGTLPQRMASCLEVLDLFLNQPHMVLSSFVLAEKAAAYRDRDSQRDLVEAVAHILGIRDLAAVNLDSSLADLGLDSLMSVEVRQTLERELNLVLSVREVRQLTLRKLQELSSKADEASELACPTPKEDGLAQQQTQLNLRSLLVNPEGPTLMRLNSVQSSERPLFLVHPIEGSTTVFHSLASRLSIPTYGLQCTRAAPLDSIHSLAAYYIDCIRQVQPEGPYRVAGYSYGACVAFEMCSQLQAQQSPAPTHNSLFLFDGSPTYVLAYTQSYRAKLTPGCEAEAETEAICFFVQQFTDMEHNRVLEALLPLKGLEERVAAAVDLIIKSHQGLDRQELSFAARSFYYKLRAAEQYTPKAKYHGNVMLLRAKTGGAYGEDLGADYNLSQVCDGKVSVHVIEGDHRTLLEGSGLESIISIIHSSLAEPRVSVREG
- experimental.details: FAS thioesterase domain inhibitors, dose response, biochemical, kinetic fluorescence intensity (AID 624326);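 also: rate of fluorescence rise from hydrolysis of a fluorogenic O-methyl fluorescein ester substrate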
- Type: functional
Active and inactive are the calls of the source.
Below is a list of entries, each paired with its recorded IC50 value.
property.label: IC50

[[record]]
molecule = "O=C(NCCCc1ccccc1)c1cccc([N+](=O)[O-])c1"
property_label = "IC50"
endpoint_result = "4.33 µM (active)"

[[record]]
molecule = "O=C(COC(=O)c1cc([N+](=O)[O-])ccc1N1CCOCC1)Nc1ccccc1OC(F)F"
property_label = "IC50"
endpoint_result = "5.1 µM (active)"

[[record]]
molecule = "CC(NC(=O)c1ccc([N+](=O)[O-])cc1Cl)C1CC2CCC1C2 (stereo unspecified)"
property_label = "IC50"
endpoint_result = "11.1 µM (active)"

[[record]]
molecule = "O=c1c(C(c2ccc([N+](=O)[O-])cc2)c2c(O)oc3ccccc3c2=O)c(O)oc2ccccc12"
property_label = "IC50"
endpoint_result = "3.67 µM (active)"

[[record]]
molecule = "O=S(=O)(Nc1ccc2c(c1)OCCO2)c1ccc2oc3ccccc3c2c1"
property_label = "IC50"
endpoint_result = "7.42 µM (active)"

[[record]]
molecule = "COc1ccc([N+](=O)[O-])cc1NC(=O)COC(=O)/C=C/c1ccco1"
property_label = "IC50"
endpoint_result = "8.49 µM (active)"


###

- assay.system: Fatty acid synthase (Homo sapiens)
- experimental.details: FAS thioesterase domain inhibitors, dose response, biochemical, endpoint fluorescence intensity, uHTS hits (AID 624327);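 also: fluorescence from hydrolysis of an O-methyl fluorescein acyl ester substrate by the enzyme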
- Format: functional
The source made the active and inactive calls.
Below is a list of entries, each paired with its recorded IC50 value.
property.label: IC50

[[record]]
compound = "CC(NC(=O)c1ccc([N+](=O)[O-])cc1Cl)C1CC2CCC1C2 (stereo not given)"
property_label = "IC50"
endpoint_result = "9.39 µM (active)"

[[record]]
compound = "O=c1c(C(c2ccc([N+](=O)[O-])cc2)c2c(O)oc3ccccc3c2=O)c(O)oc2ccccc12"
property_label = "IC50"
endpoint_result = "4.65 µM (active)"

[[record]]
compound = "O=S(=O)(Nc1ccc2c(c1)OCCO2)c1ccc2oc3ccccc3c2c1"
property_label = "IC50"
endpoint_result = "8 µM (active)"

[[record]]
compound = "O=C(NCCCc1ccccc1)c1cccc([N+](=O)[O-])c1"
property_label = "IC50"
endpoint_result = "5.56 µM (active)"

[[record]]
compound = "O=C(COC(=O)c1cc([N+](=O)[O-])ccc1N1CCOCC1)Nc1ccccc1OC(F)F"
property_label = "IC50"
endpoint_result = "4.73 µM (active)"

[[record]]
compound = "O=C(Nc1ccc(C(F)(F)F)cc1)c1cccc(-n2cnnn2)c1"
property_label = "IC50"
endpoint_result = "11.1 µM (active)"

[[record]]
compound = "O=C(Cn1cc([N+](=O)[O-])cn1)N1CCc2ccccc2C1"
property_label = "IC50"
endpoint_result = "11.1 µM (active)"

[[record]]
compound = "O=C(NCCC(=O)N(CCc1ccccc1)Cc1ccccc1)c1ccc([N+](=O)[O-])cc1"
property_label = "IC50"
endpoint_result = "8.21 µM (active)"

[[record]]
compound = "O=C(NCc1ccc(C(F)(F)F)cc1)C1CC(c2c(Cl)cccc2Cl)=NO1 (stereo not given)"
property_label = "IC50"
endpoint_result = "10.3 µM (active)"

[[record]]
compound = "COc1ccc([N+](=O)[O-])cc1NC(=O)COC(=O)/C=C/c1ccco1"
property_label = "IC50"
endpoint_result = "5.11 µM (active)"

